Experiment: Blood chemistry markers after oral gavage in CD-1 mice (Example 7)
Assay type: in vivo
Conditions: 500 mg/kg oral gavage once daily for 4 weeks, day 30
Catalogue of ALT values

{"substance": "830025 (antisense TTTGTAAATCGAAAGC; 3-10-3 cEt gapmer, further chemistry not given here) [compound 830025]", "ALT (IU/L)": 34}
{"substance": "830121 (AGAATCAAGCCCTGGC; 3-10-3 cEt gapmer, further chemistry not given here) [compound 830121]", "ALT (IU/L)": 45}
{"substance": "830037 (antisense CTATTGGCTGATCTGG; 3-10-3 cEt gapmer, further chemistry not given here) [compound 830037]", "ALT (IU/L)": 62}

Data provenance: patent US10517889B2
